In this section we review reported protein stability index values for a set of variants.
B1: FBXO34 (parent)
chain: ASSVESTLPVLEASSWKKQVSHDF

variants of: B1; test: protein stability index of a GFP-peptide fusion (GPS, HEK-293T) (PSI 1-6); higher = more stable; conditions: c terminus: a fixed tail appended;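 note: lentivirally expressed fusions sorted by FACS into six bins by GFP to DsRed ratio, PSI derived from sequencing read proportions per bin multiplied by bin number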
parameter: protein stability index

>>> recorded_result("ASSVESTLPGLEASSWKKQVSHDF [V10G]")
3.41
>>> recorded_result("ASSVKSTLPVLEASSWKKQVSHDF [E5K]")
2.48
>>> recorded_result("NSSVESTLPVLEASSWKKQVSHDF [A1N]")
2.9
>>> recorded_result("ASSVESTLPVLEASSWKKQVSLDF [H22L]")
3.36
>>> recorded_result("ASSVESTPPVLEASSWKKQVSHDF [L8P]")
2.66
>>> recorded_result("ASSVESDLPVLEASSWKKQVSHDF [T7D]")
3.63
>>> recorded_result("ASSVESTLPVLEASSWKKQVSHFF [D23F]")
3.22
>>> recorded_result("ASSVESTLPVLEASSLKKQVSHDF [W16L]")
3.94
>>> recorded_result("ASSVESTLPVLEASSWKFQVSHDF [K18F]")
1.8
>>> recorded_result("ASSVESTLPVLGASSWKKQVSHDF [E12G]")
2.49
>>> recorded_result("ASSVESTLPVLEASLWKKQVSHDF [S15L]")
3.4
>>> recorded_result("ASSTESTLPVLEASSWKKQVSHDF [V4T]")
2.88
>>> recorded_result("ASSVESTSPVLEASSWKKQVSHDF [L8S]")
3.57
>>> recorded_result("ASSVMSTLPVLEASSWKKQVSHDF [E5M]")
2.84
>>> recorded_result("TSSVESTLPVLEASSWKKQVSHDF [A1T]")
2.79
>>> recorded_result("ASSVESELPVLEASSWKKQVSHDF [T7E]")
2.88
>>> recorded_result("ASSVESTLPVLDASSWKKQVSHDF [E12D]")
2.83
>>> recorded_result("GSSVESTLPVLEASSWKKQVSHDF [A1G]")
2.99
>>> recorded_result("ASSVESTLPVLEACSWKKQVSHDF [S14C]")
2.95
>>> recorded_result("ASEVESTLPVLEASSWKKQVSHDF [S3E]")
3.72
>>> recorded_result("ASSVESTLPVLESSSWKKQVSHDF [A13S]")
3.36
>>> recorded_result("ASSVESTLPVLEASSWKKQVSHTF [D23T]")
3.26
>>> recorded_result("ASSVEFTLPVLEASSWKKQVSHDF [S6F]")
1.76
>>> recorded_result("ASSVECTLPVLEASSWKKQVSHDF [S6C]")
2.56
>>> recorded_result("ASSVEKTLPVLEASSWKKQVSHDF [S6K]")
2.76
>>> recorded_result("ASSVESTLPVLEASSWKKQVSHDK [F24K]")
4.79
